Hey, just so you know, these numbers are from patent US20050261290A1.

# Tgt: human 11b-hsd-1 (Homo sapiens, UniProt P28845)
# Sequence (P28845 whole entry): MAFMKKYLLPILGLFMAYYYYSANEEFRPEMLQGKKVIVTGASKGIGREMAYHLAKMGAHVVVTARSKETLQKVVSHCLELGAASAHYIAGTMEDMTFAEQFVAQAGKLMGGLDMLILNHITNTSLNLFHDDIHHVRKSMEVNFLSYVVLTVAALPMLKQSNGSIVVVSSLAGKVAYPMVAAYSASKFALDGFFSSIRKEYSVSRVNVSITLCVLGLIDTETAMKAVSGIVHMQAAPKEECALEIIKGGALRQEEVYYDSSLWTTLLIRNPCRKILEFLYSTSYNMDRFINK
# Test protocol: Inhibition constant Ki of human 11b-hsd-1 (3H-cortisone to 3H-cortisol conversion, HPLC)
# Format: biochemical
# Assay context: compound at 0.1 μM
Classification field: enter 1 for inhibition at 0.1 µM values not below 90%, -1 for values below it.

In plain terms: is recorded inhibition at 0.1 µM at least 90% for CN1CCC(CN2CCOC[C@@H]2C(=O)NC2C3CC4CC(C3)CC2C4)CC1 (some centres unmarked) ?
-1

In plain terms: is recorded inhibition at 0.1 µM at least 90% for O=C(NC1C2CC3CC(C2)CC1C3)[C@H]1CCCN1Cc1ccn[nH]1 (some centres unmarked) ?
-1

In plain terms: is recorded inhibition at 0.1 µM at least 90% for CCN1CCC[C@@H]1C(=O)NC12CC3CC(CC(C3)C1)C2 ?
1
